These measurements were taken from ChEMBL document CHEMBL4406825.

molecular target: 72 kDa type IV collagenase (Homo sapiens, UniProt P08253); assay: Inhibition of recombinant human MMP2 at 10 uM using thiopeptide as substrate preincubated for 30 mins followed by substrate addition and measured every min for 20 mins by colorimetric assay relative to control
Sequence (P08253 110-660 limits assumed): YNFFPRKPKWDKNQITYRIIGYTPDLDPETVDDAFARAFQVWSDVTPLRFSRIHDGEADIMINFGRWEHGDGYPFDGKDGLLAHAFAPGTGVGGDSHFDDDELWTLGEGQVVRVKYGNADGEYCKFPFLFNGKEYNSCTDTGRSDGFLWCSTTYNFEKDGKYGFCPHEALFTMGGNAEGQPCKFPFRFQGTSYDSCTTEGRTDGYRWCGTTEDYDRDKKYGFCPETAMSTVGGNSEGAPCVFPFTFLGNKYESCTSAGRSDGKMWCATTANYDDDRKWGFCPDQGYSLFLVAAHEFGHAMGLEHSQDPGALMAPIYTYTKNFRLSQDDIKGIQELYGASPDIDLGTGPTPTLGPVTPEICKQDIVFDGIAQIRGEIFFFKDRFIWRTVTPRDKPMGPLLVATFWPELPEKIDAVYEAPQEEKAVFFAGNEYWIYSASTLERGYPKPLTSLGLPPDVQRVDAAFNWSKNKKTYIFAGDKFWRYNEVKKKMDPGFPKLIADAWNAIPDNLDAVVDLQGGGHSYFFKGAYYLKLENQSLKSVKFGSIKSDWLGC
Outcome label depends on inhibition relative to 50%: at/above gives satisfied, below gives not satisfied.

# smiles.data, class.label
records = [
    ("Cc1[nH]c2ccccc2c1CCNC(=O)CCCNCc1ccc(O)c2ncccc12", "not satisfied"),
    ("Cc1[nH]c2ccccc2c1CCNC(=O)CCCNCc1cc(Cl)c2cccnc2c1O", "satisfied"),
    ("O=C(CCCCCNCc1ccc(O)c2ncccc12)Nc1ccccc1", "satisfied"),
    ("O=C(CCCNCc1ccc(O)c2ncccc12)Nc1ccccc1", "satisfied"),
]
